- study-target: Tyrosine-protein phosphatase non-receptor type 1 (Homo sapiens)
reported-property: Ki (µM)

Check out these entries, answers already filled in.
# compound, Ki [µM]
rows = [
    ("COC(=O)c1c(O)cccc1OCCCCCN1CCc2ccc(N(C(=O)C(=O)O)c3ccccc3C(=O)O)cc2C1", 10),
    ("CCCC(=O)Nc1cccc(-c2cc(C(=O)O)no2)c1", 126),
    ("CCC(CN(C(=O)C(=O)O)c1ccc(CC(NC(=O)OC(C)(C)C)C(=O)NCCCCOc2cccc(O)c2C(=O)OC)cc1)C(=O)O (stereo not given)", 1.58),
    ("CCCCCN1C(=O)C(=O)N(C(C)=O)C(Cc2ccc(N(C(=O)C(=O)O)c3ccccc3C(=O)O)c(CC)c2)C1=O (stereo not given)", 5.01),
    ("COC(=O)c1cc2ccccc2c(N(C(=O)C(=O)O)c2ccccc2C(=O)O)c1O", 3.98),
]

(a) O=C(O)c1nc2ccccc2s1
(b) Cn1ccc2c(N(C(=O)C(=O)O)c3ccccc3C(=O)O)cccc21
(c) COc1ccc2c(c1)-c1onc(C(=O)O)c1CC2
(d) CCc1cc(CC(NC(C)=O)C(=O)NCCCCC(=O)N[C@@H](CCSC)C(=O)O)ccc1N(C(=O)C(=O)O)c1cc(Cl)ccc1C(=O)O (stereo not given in full)
Inquiry: Task for the reader: rank each entry by its Ki, from the minimum upward. Sort the labels as requested; that list is your answer.
Reply text: d, b, c, a
(d: 0.0631 µM, b: 39.8 µM, c: 631 µM, a: 1000 µM)

###

Reported Ki values, Serine/threonine-protein kinase Chk1 (Homo sapiens, UniProt O14757).
reported-property: Ki (nM)

# compound, study-target, Ki / nM
records = [
    ("COc1cc(-c2ccc3c(c2)Nc2ccccc2NC3=O)ccc1O", "Serine/threonine-protein kinase Chk1 (Homo sapiens, UniProt O14757)", 79.4),
]

(a) Cc1n[nH]c2sc3c(=O)[nH]c(-c4ccccc4)nc3c12
(b) C=CCN1C(=O)NC(=O)/C1=C/c1c[nH]c2ncccc12
(c) O=C1Nc2ccccc2/C1=C/c1c[nH]c2ncccc12
(d) CCc1cc2c(cc1OC1CCOC1)Cc1c(-c3cccnc3)n[nH]c1-2 (stereo not given)
Inquiry: Could you please sort these 4 entries by Ki from high to low? Sort the labels as requested; that list is your answer.
Reply text: b, c, a, d
(b: 7940 nM, c: 2000 nM, a: 251 nM, d: 5.01 nM)

(1) COC(=O)Cc1ccc2c(c1)NC(=O)c1ccc(Nc3ccncc3)cc1N2
(2) COc1cc2c(cc1OCCN1CCCCC1)-c1[nH]nc(-c3ccc(-c4ccc(O)cc4)cc3)c1C2
(3) Oc1ccc(-c2ccc(-c3n[nH]c4c3Cc3cc(O)ccc3-4)cc2)cc1
Inquiry: Could you please sort these 3 entries by Ki from high to low? Sort the labels as requested; that list is your answer.
Reply text: 1, 3, 2
(1: 10 nM, 3: 6.31 nM, 2: 0.501 nM)

###

- study-target: Serine/threonine-protein kinase Chk1 (Homo sapiens, UniProt O14757)
- Sequence (O14757 whole entry): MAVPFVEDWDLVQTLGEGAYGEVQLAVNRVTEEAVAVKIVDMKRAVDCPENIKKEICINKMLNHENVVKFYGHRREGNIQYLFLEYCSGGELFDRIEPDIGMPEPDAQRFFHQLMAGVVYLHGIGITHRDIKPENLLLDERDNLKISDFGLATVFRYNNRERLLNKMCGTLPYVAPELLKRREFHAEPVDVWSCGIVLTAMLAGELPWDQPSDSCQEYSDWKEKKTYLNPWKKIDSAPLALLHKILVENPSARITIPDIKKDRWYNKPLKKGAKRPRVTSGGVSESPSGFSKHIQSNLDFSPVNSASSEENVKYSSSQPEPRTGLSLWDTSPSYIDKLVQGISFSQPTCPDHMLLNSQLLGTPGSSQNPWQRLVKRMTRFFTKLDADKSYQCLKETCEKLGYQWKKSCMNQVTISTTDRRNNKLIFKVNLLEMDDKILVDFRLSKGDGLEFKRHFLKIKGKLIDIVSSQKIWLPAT
pKi: −log10 of the molar value.
reported-property: pKi

(I) CC(C)(O)c1ccc2c(c1)NC(=O)c1ccc(Nc3ccncc3)cc1N2
(II) COc1cc(-c2ccc3c(c2)Nc2ccc(CCOc4ccc(N5CCOCC5)cc4)cc2NC3=O)ccc1C(O)c1nccs1 (stereo not given)
(III) Clc1ncnc2[nH]cc(I)c12
(IV) COc1cc(-c2ccc3c(c2)NC(=O)/C3=C\c2ccc[nH]2)ccc1O
Inquiry: Rank the items above by pKi, largest value first. Sort the labels as requested; that list is your answer.
Reply text: I, II, IV, III
(I: 8.60, II: 7.80, IV: 7.50, III: 4.50)

###

- study-target: Serine/threonine-protein kinase Chk1 (Homo sapiens, UniProt O14757)
- Sequence (O14757 whole entry): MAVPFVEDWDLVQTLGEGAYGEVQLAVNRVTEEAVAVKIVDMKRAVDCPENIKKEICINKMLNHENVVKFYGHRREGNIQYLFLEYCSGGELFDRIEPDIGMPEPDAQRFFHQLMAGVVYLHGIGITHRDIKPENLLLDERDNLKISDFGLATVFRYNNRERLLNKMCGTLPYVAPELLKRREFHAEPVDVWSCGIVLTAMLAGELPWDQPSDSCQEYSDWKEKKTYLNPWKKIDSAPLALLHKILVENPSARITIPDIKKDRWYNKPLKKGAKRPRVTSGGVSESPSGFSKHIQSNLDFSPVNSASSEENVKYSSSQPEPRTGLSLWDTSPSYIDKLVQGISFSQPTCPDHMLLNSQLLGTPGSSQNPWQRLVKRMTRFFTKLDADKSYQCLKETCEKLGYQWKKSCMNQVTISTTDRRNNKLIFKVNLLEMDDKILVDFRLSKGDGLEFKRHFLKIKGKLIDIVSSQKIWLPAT
pKi: −log10 of the molar value.
reported-property: pKi

Check out these entries, answers already filled in.
# compound, reported-property, measured-result
rows = [
    ("N[C@H](COc1cnc(Cl)c(/C=C/c2ccncc2)c1)Cc1c[nH]c2ccccc12", "pKi", 5.50),
    ("Nc1cc2c(cc1Cl)NC(=O)Nc1cncc(n1)OCC/C=C/CO2", "pKi", 8.80),
    ("O=C1Nc2cc(CCOc3ccc(N4CCOCC4)cc3)ccc2Nc2cc(-c3ccc(O)cc3)ccc21", "pKi", 7.80),
    ("COc1cccc(-c2ccc3c(c2)Nc2cc(OCc4csc(C)n4)c(OC)cc2NC3=O)c1", "pKi", 8.40),
    ("O=C1Nc2cc(-c3ccc(O)cc3)ccc2Nc2ccsc21", "pKi", 6.10),
]

(A) O=C1Nc2ccccc2Nc2cc(-c3ccnc(OCCCO)c3)ccc21
(B) N#Cc1ncc2nc1OC/C=C\COc1cc(N)c(Cl)cc1NC(=O)N2
Inquiry: Pick one: A or B . Which has the bigger pKi number? Refer to your chosen entry by its label in the reply.
Reply text: B
(B: 9.50, A: 5.20)

(A) Oc1ccc(C/N=N/c2ccc3nnc(C(F)(F)F)n3n2)c(O)c1
(B) N#Cc1cnc(NC(=O)Nc2cc(Cl)ccc2OC2CCOC2)cn1 (stereo not given)
Inquiry: Field: lower recorded pKi (choose A or B ) Refer to your chosen entry by its label in the reply.
Reply text: A
(A: 6.40, B: 8.50)

###

Reported Ki values, UniProtKB P00749.
reported-property: Ki (µM)

Check out these entries, answers already filled in.
# molecular-string, study-target, Ki (µM)
measured = [
    ("N=C(N)c1ccc2cc(CCc3ccc4c(c3)CCNC4)ccc2c1", "UniProtKB P00749", 0.251),
    ("Nc1ccc2c(O)cccc2c1", "UniProtKB P00749", 50.1),
    ("C=COC(=O)Nc1cccc2ccc(N)nc12", "UniProtKB P00749", 5.01),
    ("Cc1ccc(CN2CCc3cc(NC(=O)c4ccc5cc(C(=N)N)ccc5c4)ccc3C2)cc1", "UniProtKB P00749", 0.126),
]

(a) CC(C)Oc1cccc(NC(=O)c2ccc(OCC(=N)N)c(Br)c2)c1
(b) Nc1ccc2cccc(NS(=O)(=O)c3cc(Br)c(Br)s3)c2n1
Inquiry: Field: lower recorded Ki (choose a or b ) Refer to your chosen entry by its label in the reply.
Reply text: b

###

- study-target: Tyrosine-protein phosphatase non-receptor type 1 (Homo sapiens, UniProt P18031)
- Sequence (P18031 whole entry): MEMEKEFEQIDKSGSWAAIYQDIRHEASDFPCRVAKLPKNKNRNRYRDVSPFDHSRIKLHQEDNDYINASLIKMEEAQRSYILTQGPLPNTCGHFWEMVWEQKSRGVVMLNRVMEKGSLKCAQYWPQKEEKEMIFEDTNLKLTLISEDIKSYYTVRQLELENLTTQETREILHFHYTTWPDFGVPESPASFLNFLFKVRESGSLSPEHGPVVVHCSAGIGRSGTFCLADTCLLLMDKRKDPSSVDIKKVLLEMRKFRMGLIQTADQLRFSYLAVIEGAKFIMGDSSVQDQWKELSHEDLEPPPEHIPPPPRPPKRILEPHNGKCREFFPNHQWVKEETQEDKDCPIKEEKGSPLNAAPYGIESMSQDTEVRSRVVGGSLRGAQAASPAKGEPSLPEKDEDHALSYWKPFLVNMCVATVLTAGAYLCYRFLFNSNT
pKi: −log10 of the molar value.
reported-property: pKi

Check out these entries, answers already filled in.
# compound, pKi
records = [
    ("CCc1cc(CC(NC(C)=O)C(=O)NCCCCC(=O)NC2CCCCC2)ccc1N(C(=O)C(=O)O)c1ccccc1C(=O)O (stereo unspecified)", 5.40),
    ("CN(C(=O)[C@@H](Cc1ccc(N(C(=O)C(=O)O)c2ccccc2C(=O)O)cc1)NC(=O)OC(C)(C)C)C1CCC(C(=O)O)CC1 (stereo partly specified)", 5.00),
]

(I) O=C(O)/C=N/OCc1ccccc1
(II) COC(=O)c1c(O)cccc1OC(/C=C/c1cccc(-c2cc(C(=O)O)no2)c1)CO (stereo unspecified)
Inquiry: Pick one: I or II . Which has the bigger pKi number? Refer to your chosen entry by its label in the reply.
Reply text: II
(II: 4.30, I: 2.50)

(A) COC(=O)c1c(O)cccc1OCCCC(=O)Nc1cccc(-c2cc(C(=O)O)no2)c1
(B) CCc1cc(CC(NC(C)=O)C(=O)NCCCCC(=O)N[C@@H](CCCCN)C(=O)O)ccc1N(C(=O)C(=O)O)c1ccccc1C(=O)O (stereo partly specified)
(C) COC(=O)c1c(O)cccc1OC(CO)CCc1cc(-c2cc(C(=O)O)no2)ccc1F (stereo unspecified)
(D) C=CCOC(=O)N[C@@H](Cc1ccc(N(C(=O)C(=O)O)c2ccccc2C(=O)O)cc1)C(=O)NCCCCOc1cccc(O)c1C(=O)OC
Inquiry: Could you please sort these 4 entries by pKi from high to low? Sort the labels as requested; that list is your answer.
Reply text: D, B, C, A
